target: cholesterol ester transfer protein (CETP) (Homo sapiens); construct: CETP is obtained in partially purified form from human plasma by differential centrifugation and column chromatography; assay: CETP inhibition testing: transfer of 3H-cholesterol ester from human HD lipoproteins to biotinylated LD lipoproteins (SPA); conditions: 3H-CE transfer HDL to biotin-LDL, 37° C., 18 h
Sequence (P11597 18-493): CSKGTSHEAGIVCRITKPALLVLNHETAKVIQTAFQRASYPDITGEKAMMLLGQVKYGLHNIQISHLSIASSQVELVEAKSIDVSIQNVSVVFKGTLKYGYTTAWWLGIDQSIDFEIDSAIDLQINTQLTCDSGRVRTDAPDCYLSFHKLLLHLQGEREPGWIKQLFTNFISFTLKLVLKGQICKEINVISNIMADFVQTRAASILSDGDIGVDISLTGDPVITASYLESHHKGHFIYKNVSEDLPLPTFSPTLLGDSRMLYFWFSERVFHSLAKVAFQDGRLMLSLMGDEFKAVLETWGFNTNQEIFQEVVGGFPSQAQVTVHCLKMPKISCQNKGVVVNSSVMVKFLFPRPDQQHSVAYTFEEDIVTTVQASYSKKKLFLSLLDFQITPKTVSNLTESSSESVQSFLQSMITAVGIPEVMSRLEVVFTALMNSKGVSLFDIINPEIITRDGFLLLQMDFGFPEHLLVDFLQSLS
Reported values of IC50 for individual entries

Exercise: # lookup: IC50 of CC(C)c1nc(-c2ccc(F)cc2)c(CO)c(-c2ccc(F)cc2)c1C=Cc1cccc(C(F)(F)F)c1 [Example 83]
Key: 5000 nM

Exercise: # lookup: IC50 of OCc1c(-c2ccc(F)cc2)nc(C2CCCCCC2)c(C(F)c2ccc(C(F)(F)F)cc2)c1-c1ccc(F)cc1 (centres unmarked) [Example 53]
Key: 170 nM

Exercise: # lookup: IC50 of OCc1c(-c2ccc(F)cc2)nc(C2CCCC2)c(C(F)c2ccc(C(F)(F)F)cc2)c1-c1ccc(F)cc1 (centres unmarked) [Example 42]
Key: 90 to 170 nM

Exercise: # lookup: IC50 of CC(O)c1c(-c2ccc(F)cc2)nc(C2CCCC2)c(C(=O)c2ccc(C(F)(F)F)cc2)c1-c1ccc(F)cc1 (centres unmarked) [Example 26]
Key: 900 nM

Note: attention shifts to another entry.
Exercise: # lookup: IC50 of OCc1c(-c2ccc(F)cc2)nc(C2CCCC2)c(C(F)c2ccc(OC(F)(F)F)cc2)c1-c1ccc(F)cc1 (centres unmarked) [Example 45]
Key: 300 nM
